# experimental_system: T1, Atg8 (1-116) K26P (S. cerevisiae, UniProt P38182 1-116, K26P)
# T1 sequence (looked up): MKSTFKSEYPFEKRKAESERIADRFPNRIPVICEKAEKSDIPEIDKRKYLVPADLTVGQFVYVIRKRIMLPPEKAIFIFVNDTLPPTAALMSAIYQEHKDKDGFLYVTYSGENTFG
# experiment_notes: ITC; MicroCal iTC200, 25 °C; peptide in the syringe (FAM134B, SEC62, RTN3 0.5 mM; Atg40^234–252 2.0 mM; Atg40^237–252 1.8 mM), Atg8-family protein in the cell at 10 times lower concentration (1.8 mM Atg8 for Atg40^237–252 D243A D247A); 20 mM HEPES pH 6.8, 150 mM NaCl; single-site model; errors are fitting errors
# run_parameters: both partners purified
quantity_name: Kd (nM)
The reply should contain only the number, in nM.

q: Given the binder TSTEFPNDYDFMEDILDET (peptide, UniProt Q99325 234-252, looked up, Atg40, S. cerevisiae, residues 234-252; also called wild-type peptide; source: synthetic peptide (Liberty Blue peptide synthesizer), SEC) [Atg40^234–252 peptide] , what is its reported Kd?
a: 590
